measurement target: glucagon receptor (UniProt P47871 26-477, limits assumed)
Sequence (P47871 26-477 limits assumed): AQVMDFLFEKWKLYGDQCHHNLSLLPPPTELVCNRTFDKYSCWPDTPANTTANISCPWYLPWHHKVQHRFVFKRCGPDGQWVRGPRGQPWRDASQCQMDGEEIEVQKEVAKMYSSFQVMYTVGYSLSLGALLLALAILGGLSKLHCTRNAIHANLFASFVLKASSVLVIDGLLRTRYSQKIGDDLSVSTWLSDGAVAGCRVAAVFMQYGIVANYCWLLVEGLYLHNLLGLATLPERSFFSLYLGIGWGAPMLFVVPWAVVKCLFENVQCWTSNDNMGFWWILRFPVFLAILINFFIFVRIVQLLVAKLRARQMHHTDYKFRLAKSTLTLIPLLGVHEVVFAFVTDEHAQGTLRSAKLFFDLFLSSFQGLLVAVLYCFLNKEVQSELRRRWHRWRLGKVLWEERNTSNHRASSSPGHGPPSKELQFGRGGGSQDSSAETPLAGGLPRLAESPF
protocol text: cell-based or functional assay
Ends that are not written are not given here.
quantity name: EC50 (nM)

HSQGTFTSDYSKYLDSRRAQDFVQWLMDGGPSSGAPPPS-NH2 [-MDGG30 PSSGAPPPS (SEQ ID NO: 525)]: 0.12
HSQGTFTSDYSKYLDSRRAQDFVQWLVKGGPSSGAPPPS-NH2 [-VKGG30 PSSGAPPPS (SEQ ID NO: 524)]: 1.16
HSQGTFTSDYSKYLDSRRAQDFVQWLMNTGPSSGAPPPS (C-terminal amide) [Glucagon-Cex]: 0.14
HSQGTFTSDYSKYLDSRRAQDFVQWLMKGGPSSGAPPPS-NH2 [-MKGG30 PSSGAPPPS (SEQ ID NO: 523)]: 0.61

Cited source for all entries: patent US20100190701A1
